# System under test: Histidine--tRNA ligase (Leishmania infantum) (UniProt A4I591)
# Sequence (A4I591 as listed by the source): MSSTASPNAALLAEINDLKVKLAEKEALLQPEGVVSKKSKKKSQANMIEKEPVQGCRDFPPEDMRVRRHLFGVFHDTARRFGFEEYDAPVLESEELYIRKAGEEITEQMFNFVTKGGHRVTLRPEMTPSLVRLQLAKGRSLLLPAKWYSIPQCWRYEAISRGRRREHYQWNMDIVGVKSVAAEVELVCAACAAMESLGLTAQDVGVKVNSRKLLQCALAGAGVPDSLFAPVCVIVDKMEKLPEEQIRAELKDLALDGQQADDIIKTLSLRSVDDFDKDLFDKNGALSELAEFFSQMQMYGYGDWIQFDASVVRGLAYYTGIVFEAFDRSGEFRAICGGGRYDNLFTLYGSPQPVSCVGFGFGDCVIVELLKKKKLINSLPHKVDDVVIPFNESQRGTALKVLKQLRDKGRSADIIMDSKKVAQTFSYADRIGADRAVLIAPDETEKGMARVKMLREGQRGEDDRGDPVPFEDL
# Protocol description: Leishmania infantum Histidine tRNA synthetase (LdHisRS)
# Type: functional
# Set-up: scale not given: in the data most compounds retested in dose-response had high values
# Assay context: 30 µM
Among all 69,000 compounds or so, about 420 (0.61%) showed an effect of 50% or more. Only a selection was taken, and strong results are over-represented in it overall.
Percent Effect by entry:
Quantity: Percent Effect

>>> df
                               smiles_record                         system_under_test  result
 0  CCn1nc(C)cc1C(=O)N1CC[C@H](OC)[C@H]2CN(CC3CC3)C[C@H]21  Histidine--tRNA ligase (Leishmania infantum) (UniProt A4I591)   3.95%
 1         CCOCCN1CCN(Cc2nnc(-c3ccco3)o2)CC1  Histidine--tRNA ligase (Leishmania infantum) (UniProt A4I591)   8.51%
 2  Cc1ccnc(N2CCN(C[C@]3(O)CCCN4CCCC[C@@H]43)CC2)c1  Histidine--tRNA ligase (Leishmania infantum) (UniProt A4I591)   2.86%
 3    COc1ccc(C)cc1CN1CCC(c2cc3ncccc3cn2)CC1  Histidine--tRNA ligase (Leishmania infantum) (UniProt A4I591)   60.6%
 4  CNC(=O)[C@@H]1COC[C@H]2CN(C(=O)c3ccc(OC)cc3)C[C@H]21  Histidine--tRNA ligase (Leishmania infantum) (UniProt A4I591)   8.77%
 5     c1cncc(N2CCC3(CCCN(c4ccncc4)C3)CC2)c1  Histidine--tRNA ligase (Leishmania infantum) (UniProt A4I591)   15.3%
 6   Cn1nc2c(cc1=O)CN(Cc1nnc(-c3ccco3)o1)CC2  Histidine--tRNA ligase (Leishmania infantum) (UniProt A4I591)   76.6%
 7  Cn1nc2c(cc1=O)CN(Cc1nnc(-c3ccc(F)cc3)o1)CC2  Histidine--tRNA ligase (Leishmania infantum) (UniProt A4I591)   78.7%
 8  Cn1cc(C(=O)N2CC[C@@H]3[C@@H]2CCN3Cc2cccc(C#N)c2)cn1  Histidine--tRNA ligase (Leishmania infantum) (UniProt A4I591)      3%
 9   Cc1ccc(-c2nnc(CN3CCc4cnc(C)nc4C3)o2)cc1  Histidine--tRNA ligase (Leishmania infantum) (UniProt A4I591)     40%
10  CO[C@@H]1CN(S(=O)(=O)c2cn(C)cn2)[C@@H]2CCCO[C@@H]21  Histidine--tRNA ligase (Leishmania infantum) (UniProt A4I591)   17.2%
11  Cc1ccncc1C(=O)N1C[C@H]2CN(CC3CCC3)C[C@@]2(C(=O)O)C1  Histidine--tRNA ligase (Leishmania infantum) (UniProt A4I591)  -1.64%
12  N#Cc1ccc(N2CCCC3(CCN(c4cccnc4)CC3)C2)cc1  Histidine--tRNA ligase (Leishmania infantum) (UniProt A4I591)   51.4%
13  CC(=O)N1CCN2C[C@H](CO)[C@@H](c3ccccc3)[C@H]2C1  Histidine--tRNA ligase (Leishmania infantum) (UniProt A4I591)   2.04%
14  Cc1ccc(-c2nnc(CN3CCc4nn(C)c(=O)cc4C3)o2)cc1  Histidine--tRNA ligase (Leishmania infantum) (UniProt A4I591)    106%
15  CCCn1cc(-c2cc(-c3cnc(OC)nc3)c(C#N)c(N)n2)c(C)n1  Histidine--tRNA ligase (Leishmania infantum) (UniProt A4I591)   16.4%
16      CCOc1ccc(-c2c(C#N)c(N)nc3c2COCC3)cn1  Histidine--tRNA ligase (Leishmania infantum) (UniProt A4I591)   21.7%
17  COCC(=O)N1CC[C@@H]2CN(Cc3cccc(Cl)c3)S(=O)(=O)[C@@H]2CC1  Histidine--tRNA ligase (Leishmania infantum) (UniProt A4I591)   3.77%
18  COc1ncc(-c2c(C#N)c(N)nc3c2CCc2[nH]ccc2-3)cn1  Histidine--tRNA ligase (Leishmania infantum) (UniProt A4I591)   95.7%
19  CO[C@@H]1CC[C@H]2[C@H]1OCCN2C(=O)C1CCOCC1  Histidine--tRNA ligase (Leishmania infantum) (UniProt A4I591)   23.1%
20  COC[C@]12COC[C@H]1CN(Cc1ccc3c(c1)OCO3)C2  Histidine--tRNA ligase (Leishmania infantum) (UniProt A4I591)   1.98%
21  Cc1nnc([C@@H]2CCO[C@@H]3CCN(C(=O)Cc4ccccn4)C[C@@H]32)o1  Histidine--tRNA ligase (Leishmania infantum) (UniProt A4I591)   15.8%

The reported measurements were obtained from ChEMBL document CHEMBL3988442.
